- experiment-notes: Pharmacokinetics in Yucatan mini-pigs, single subcutaneous or intravenous dose
- Type: in vivo
- particulars: male, Yucatan mini-pig, minipig, plasma, iv, 18 nmol/kg, single intravenous dose 18 nmol/kg, mean
- Protocol: Plasma concentrations of compounds were determined by LC/MS methods. For each assay, the compound and an internal standard (IS), were extracted from 100% mouse, rat, pig, or monkey plasma (70 μL) using Isopropanol-Methanol. Two distinct layers were formed upon centrifugation with the compound and the IS located in the supernatant layer. […] The column effluent was directed into a Thermo Fisher Scientific Orbitrap (Exploris 240) mass spectrometer for detection and quantitation. […]
*1 amine or outer side, *2 acyl side, *3 side chain or, on linkers, in order; H or OH if unused. Side-chain parts run from the residue outwards. [ ]: non-standard residue; d: D form. The star is where a group is joined. C20 diacid = O=C(O)CCCCCCCCCCCCCCCCCCC(=O)*; γGlu = O=C(O)[C@H](CCC(=O)[*:2])N[*:1]; εLys = N[C@@H](CCCCN[*:1])C(=O)[*:2]; pGlu = O=C1CC[C@@H](C(=O)O)N1; αMeL = CC(C)C[C@](C)(N)C(=O)O; AEEA = NCCOCCOCC(=O)O; Aib = CC(C)(N)C(=O)O
measured-property: clearance (mL/day/kg)

substance="[pGlu]GSPSGIVTS[αMeL]DVPT[Aib][αMeL]LQKILEQERAEKARQQAK([γGlu-AEEA-εLys-C20 diacid])EAAEILAQV-NH2 [SEQ ID NO: 22]" value_units=mL/day/kg test_result=17.6
